- protocol_text: Volume of distribution at steady state in dog at 1 mg/kg, iv and 2 mg/kg, po by LC/MS/MS analysis
- Type: ADME, organism-based, Canis lupus familiaris
- particulars: in vivo, read-out: Vdss

# molecule, Vd
measured = [
    ("FC(F)(F)Oc1ccc(CN2CCC3(CC2)OC(c2cc(Cl)ccn2)c2ccccc23)cc1 (stereo unspecified)", "5.5 L/kg"),
]

---

- protocol_text: Drug uptake in established diet-induced obese wild type C57BL/6 mouse brain at 30 mg/kg, po qd for 5 days measured on day 6
- Assay type: ADME, organism-based
- Design: dose 30 mg/kg, route oral
- particulars: read-out: Drug uptake

# compound, unit_tag, concentration at 120 h
measured = [
    ("FC(F)(F)Oc1ccc(CN2CCC3(CC2)OC(c2cc(Cl)ccn2)c2ccccc23)cc1 (stereo unspecified)", "nM", 690),
]

---

- protocol_text: Clearance in rat at 1 mg/kg, iv and 2 mg/kg, po by LC/MS/MS analysis
- Type: ADME, organism-based
- particulars: in vivo
measurement_type: clearance (mL/min/kg)

# compound, recorded_result
rows = [
    ("FC(F)(F)Oc1ccc(CN2CCC3(CC2)OC(c2cc(Cl)ccn2)c2ccccc23)cc1 (stereo unspecified)", 11),
]

---

- protocol_text: Drug uptake in established diet-induced obese C57BL/6 mouse blood at 3 mg/kg, po qd for 2 days
- Type: ADME, organism-based
- Set-up: dose 3 mg/kg, route oral
- particulars: read-out: Drug uptake
measurement_type: concentration at 48 h

# molecule, measurement_type, recorded_result
records = [
    ("FC(F)(F)Oc1ccc(CN2CCC3(CC2)OC(c2cc(Cl)ccn2)c2ccccc23)cc1 (stereo unspecified)", "concentration at 48 h", "80 nM"),
]

---

- protocol_text: Drug uptake in established diet-induced obese C57BL/6 mouse brain at 30 mg/kg, po qd for 2 days
- Assay type: ADME, organism-based
- Design: dose 30 mg/kg, route oral
- particulars: read-out: Drug uptake

# compound, concentration at 48 h [nM]
data = [
    ("FC(F)(F)Oc1ccc(CN2CCC3(CC2)OC(c2cc(Cl)ccn2)c2ccccc23)cc1 (stereo unspecified)", 520),
]

---

- protocol_text: Oral bioavailability in C57BL/6 mouse at 1 mg/kg by LC/MS/MS analysis
- Assay type: ADME, organism-based
- particulars: in vivo
molecules and their reported bioavailability
measurement_type: bioavailability

# molecule, recorded_result
measured = [
    ("O=S(=O)(c1ccc(C(F)(F)F)cn1)N1CCC2(CC1)OC(c1cc(Cl)cc[n+]1[O-])c1ccccc12 (racemic)", "23%"),
    ("Clc1cc(Cl)cc(C2OC3(CCN(Cc4ccc(N5CCCC5)cn4)CC3)c3ccccc32)c1 (racemic)", "23%"),
    ("O=S(=O)(c1ccc(OC(F)(F)F)cc1)N1CCC2(CC1)OC(c1cc(Cl)cc(Cl)c1)c1cccnc12 (racemic)", "36%"),
    ("CC(c1ccc(F)cn1)N1CCC2(CC1)OC(c1cc(Cl)ccn1)c1ccccc12 (racemic)", "7.8%"),
]

---

- protocol_text: Volume of distribution at steady state in rat at 1 mg/kg, iv and 2 mg/kg, po by LC/MS/MS analysis
- Assay type: ADME, organism-based
- particulars: in vivo, read-out: Vdss

# compound, Vd
rows = [
    ("FC(F)(F)Oc1ccc(CN2CCC3(CC2)OC(c2cc(Cl)ccn2)c2ccccc23)cc1 (stereo unspecified)", "5.9 L/kg"),
]

---

- protocol_text: Plasma concentration in PrCP knockout mouse at 30 mg/kg, po qd for 5 days measured on day 6
- Format: ADME, organism-based
- Design: dose 30 mg/kg, route oral
measurement_type: concentration at 120 h

# compound, recorded_result
rows = [
    ("FC(F)(F)Oc1ccc(CN2CCC3(CC2)OC(c2cc(Cl)ccn2)c2ccccc23)cc1 (stereo unspecified)", "1570 nM"),
]

---

- protocol_text: Fraction unbound in mouse plasma
- Assay type: ADME, cell-free
compounds and their reported fraction unbound
measurement_type: fraction unbound

# compound, measurement_type, censoring_qualifier, recorded_result
rows = [
    ("FC(F)(F)Oc1ccc(CN2CCC3(CC2)OC(c2cc(Cl)ccn2)c2ccccc23)cc1 (centres undefined)", "fraction unbound", "<", 0.0006),
    ("O=S(=O)(c1ccc(OC(F)(F)F)cc1)N1CCC2(CC1)OC(c1cc(Cl)cc(Cl)c1)c1cccnc12 (racemic)", "fraction unbound", "<", 0.0006),
    ("[O-][n+]1ccc(Cl)cc1C1OC2(CCN(Cc3ccc(OC(F)(F)F)cc3)CC2)c2ccccc21 (single isomer, unassigned)", "fraction unbound", "=", 0.007),
    ("O=S(=O)(c1ccc(C(F)(F)F)cn1)N1CCC2(CC1)OC(c1cc(Cl)cc[n+]1[O-])c1ccccc12 (racemic)", "fraction unbound", "=", 0.025),
]

---

- System: Mus musculus
- protocol_text: Dose normalized AUC in C57BL/6 mouse at 1 mg/kg by LC/MS/MS analysis
- Type: ADME, organism-based
- Design: dose 1 mg/kg
- particulars: in vivo
compounds and their reported AUC/dose

# compound, AUC/dose / µM·kg·h/mg
records = [
    ("FC(F)(F)Oc1ccc(CN2CCC3(CC2)OC(c2ccccn2)c2ccccc23)cc1 (racemic)", 0.14),
    ("FC(F)(F)Oc1ccc(CN2CCC3(CC2)OC(c2cc(Cl)cc(Cl)c2)c2cccnc23)cc1 (centres undefined)", 0.26),
    ("O=S(=O)(c1ccc(C(F)(F)F)cn1)N1CCC2(CC1)OC(c1cc(Cl)cc[n+]1[O-])c1ccccc12 (racemic)", 0.1),
    ("CC(c1ccc(F)cn1)N1CCC2(CC1)OC(c1cc(Cl)ccn1)c1ccccc12 (racemic)", 0.032),
]

---

- Test system: Mus musculus
- protocol_text: Dose normalized AUC in C57BL/6 mouse at 2 mg/kg by LC/MS/MS analysis
- Assay type: ADME, organism-based
- Parameters: dose 2 mg/kg
- particulars: in vivo

# compound, AUC/dose
records = [
    ("FC(F)(F)Oc1ccc(CN2CCC3(CC2)OC(c2cc(Cl)ccn2)c2cccnc23)cc1 (racemic)", "0.23 µM·kg·h/mg"),
    ("[O-][n+]1ccc(Cl)cc1C1OC2(CCN(Cc3ccc(OC(F)(F)F)cc3)CC2)c2ccccc21 (single isomer, unassigned)", "0.43 µM·kg·h/mg"),
    ("FC(F)(F)Oc1ccc(CN2CCC3(CC2)OC(c2cc(Cl)ccn2)c2ccccc23)cc1 (centres undefined)", "0.28 µM·kg·h/mg"),
    ("FC(F)(F)Oc1ccc(CN2CCC3(CC2)OC(c2cc(Cl)cc(Cl)c2)c2ccccc23)cc1 (centres undefined)", "2.16 µM·kg·h/mg"),
]

---

- protocol_text: Oral bioavailability in C57BL/6 mouse at 1 mg/kg by LC/MS/MS analysis
- Type: ADME, organism-based
- particulars: in vivo
compounds and their reported bioavailability
measurement_type: bioavailability (%)

# compound, recorded_result
rows = [
    ("CC(C)(c1ccc(OC(F)(F)F)cc1)N1CCC2(CC1)OC(c1cc(Cl)ccn1)c1cccnc12 (racemic)", 41),
    ("OCC(c1ccccc1)N1CCC2(CC1)OC(c1cc(Cl)cc(Cl)c1)c1cccnc12 (racemic)", 17),
    ("Fc1ccc(CN2CCC3(CC2)OC(c2cc(Cl)cc(Cl)c2)c2ccccc23)nc1 (centres undefined)", 22),
    ("CC(c1ccc(F)cn1)N1CCC2(CC1)OC(c1cc(Cl)cc(Cl)c1)c1ccccc12 (racemic)", 22),
]

---

- protocol_text: Ratio of drug level in brain to plasma in wild type CF1 mouse at 3 mg/kg, po after 4 hrs
- Type: ADME, organism-based
- Set-up: dose 3 mg/kg, route oral
- particulars: brain and plasma, read-out: BPR

# compound, Kp at 4 h
records = [
    ("FC(F)(F)Oc1ccc(CN2CCC3(CC2)OC(c2cc(Cl)ccn2)c2ccccc23)cc1 (stereo unspecified)", 0.94),
]

---

- protocol_text: Half life in C57BL/6 mouse at 1 mg/kg, iv and 2 mg/kg, po by LC/MS/MS analysis
- Format: ADME, organism-based
- particulars: in vivo
compounds and their reported half-life
measurement_type: half-life

# compound, recorded_result
measured = [
    ("FC(F)(F)Oc1ccc(CN2CCC3(CC2)OC(c2cc(Cl)ccn2)c2cccnc23)cc1 (racemic)", "5 h"),
    ("FC(F)(F)Oc1ccc(CN2CCC3(CC2)OC(c2cc(Cl)cc(Cl)c2)c2ccccc23)cc1 (centres undefined)", "7 h"),
    ("[O-][n+]1ccc(Cl)cc1C1OC2(CCN(Cc3ccc(OC(F)(F)F)cc3)CC2)c2ccccc21 (single isomer, unassigned)", "5.6 h"),
    ("FC(F)(F)Oc1ccc(CN2CCC3(CC2)OC(c2cc(Cl)ccn2)c2ccccc23)cc1 (centres undefined)", "6.7 h"),
]
